# Assay Text: Cytotoxicity SRB assay, HUVEC
# Protocol Conditions: human, HUVEC (umbilical vein endothelial cells)
List of IC50 at 72 h values.

[
  {
    "Smiles Str": "COc1cc(O)c2c(c1)/C=C/C[C@H](OC(C)=O)[C@H](OC(C)=O)[C@@H](OC(C)=O)/C=C/C[C@H](C)OC2=O",
    "IC50 at 72 h": "> 10 µM"
  },
  {
    "Smiles Str": "COc1cc(O)c2c(c1)/C=C/C[C@H](O)[C@H](O)C(=O)/C=C\\C[C@H](C)OC2=O",
    "IC50 at 72 h": "> 10 µM"
  },
  {
    "Smiles Str": "COc1cc2c(c(OC(C)=O)c1)C(=O)O[C@@H](C)C/C=C/[C@H](OC(C)=O)[C@@H](OC(C)=O)[C@@H](OC(C)=O)C/C=C/2",
    "IC50 at 72 h": "> 10 µM"
  },
  {
    "Smiles Str": "COc1cc(O)c2c(c1)/C=C/C[C@H](O)[C@H](O)C(=O)/C=C/C[C@H](C)OC2=O",
    "IC50 at 72 h": "8.59 µM"
  },
  {
    "Smiles Str": "COc1cc2c(c(OC(C)=O)c1)C(=O)O[C@@H](C)C/C=C/C(=O)[C@@H](OC(C)=O)[C@H](OC(C)=O)C/C=C/2",
    "IC50 at 72 h": "> 10 µM"
  }
]
